Recorded cell viability, one value per entry.
system: Vero E6; assay: cell viability relative to DMSO; higher = less toxic; conditions: 72 h; 1000 nM
Lab book: enter the figure in %, no units written.

query: What value of cell viability has been recorded for this entry: `Nc1cccc(-c2cc3c(Oc4cccc(O)c4)ncnc3[nH]2)c1`
result: 82.2

query: And the next one, `CN(C)CCCN1c2ccccc2CCc2ccccc21` ?
result: 96.6

query: And the next one, `C/C(=C\C(=O)OCCCCCCCCC(=O)O)C[C@@H]1OC[C@H](C[C@@H]2O[C@H]2[C@@H](C)[C@H](C)O)[C@@H](O)[C@H]1O` ?
result: 97.3

query: And the next one, `CCOC(=O)C1=CCCC[C@H]1S(=O)(=O)Nc1ccc(F)cc1Cl` ?
result: 88.4

query: And the next one, `Cc1ccc([N+](=O)[O-])cc1S(=O)(=O)N(C)/N=C/c1cnc2ccc(Br)cn12` ?
result: 0.7

query: And the next one, `CN(C(=O)CN(CCO)CC(=O)N(C)C(C)(C)Cc1ccccc1)C(C)(C)Cc1ccccc1` ?
result: 99.8

query: And the next one, `COc1cc(OC)c2c(=O)[nH]c(-c3cc(C)c(OCCO)c(C)c3)nc2c1` ?
result: 93

query: And the next one, `CNC(=O)c1ccc(Nc2ncc(C(F)(F)F)c(NCc3nccnc3N(C)S(C)(=O)=O)n2)cc1` ?
result: 84.2

----------
tested on: Vero E6; test: cell viability relative to DMSO; higher = less toxic; settings: 72 h; 10000 nM
Parameter: cell viability (%)
Lab book: enter the figure in %, no units written.

| Compound | Unit info | cell viability |
| --- | --- | --- |
| CC[C@H](C)[C@H](N)C1=N[C@H](C(=O)N[C@@H](CC(C)C)C(=O)N[C@H](CCC(=O)[O-])C(=O)N[C@H](C(=O)N[C@H]2CCCCNC(=O)[C@H](CC(N)=O)NC(=O)[C@@H](CC(=O)[O-])NC(=O)[C@H](Cc3cnc[nH]3)NC(=O)[C@@H](Cc3ccccc3)NC(=O)[C@H]([C@@H](C)CC)NC(=O)[C@@H](CCCN)NC2=O)[C@@H](C)CC)CS1.[Zn+2] [bacitracin-zinc] | % | 112 |
| O=C(Nc1c(-c2cccs2)nc2ccccn12)c1ccc(Cl)cc1 | % | 92.9 |
| Cc1ccc(NC(=O)CCCCCC(=O)Nc2ccccc2N)cc1 [TC-H-106] | % | 77.6 |

query: What value of cell viability has been recorded for this entry: O=C(O)[C@@H]1C[C@@H](O)CN1 [L-hydroxyproline]
result: 94.4

query: And the next one, CS(=O)(=O)c1ccc(C2=C(c3ccccc3)C(=O)OC2)cc1 [rofecoxib] ?
result: 102

query: And the next one, `CN(C)CCOc1ccc(-c2nc(-c3ccncc3)c(-c3ccc4c(c3)CC/C4=N\O)[nH]2)cc1` ?
result: 113

query: And the next one, CN1CCN(S(=O)(=O)c2ccc(-c3cnc(N)c(C(=O)Nc4cccnc4)n3)cc2)CC1 [AZD2858] ?
result: 78.8

query: And the next one, C[C@@H](N)Cc1c[nH]c2ccc(O)cc12 [alpha-methylserotonin] ?
result: 104

----------
Recorded drug sensitivity score, one value per entry.
system: Calu-3; assay: drug sensitivity score (DSS) for viability; higher = more toxic; extreme values may be limits of the assay; conditions: 72 h
// keep it numeric: no unit symbol after the value

| Compound | drug sensitivity score |
| --- | --- |
| CNC(=O)c1nn(C)c2c1C(C)(C)Cc1cnc(Nc3ccc(N4CCN(C)CC4)cc3)nc1-2 | 7.9 |

query: What value of drug sensitivity score has been recorded for this entry: `Cc1ccc([N+](=O)[O-])cc1S(=O)(=O)N(C)/N=C/c1cnc2ccc(Br)cn12`
result: 17.4

query: And the next one, `c1ccc2nc(C3=NCCN3)ccc2c1` ?
result: 0

query: And the next one, `CC[C@@H](C(=O)[C@@H](C)[C@@H](O)[C@H](C)[C@@H]1O[C@@H]([C@@H](CC)C(=O)O)CC[C@@H]1C)[C@H]1O[C@]2(C=C[C@@H](O)[C@]3(CC[C@@](C)([C@H]4CC[C@](O)(CC)[C@H](C)O4)O3)O2)[C@H](C)C[C@@H]1C` ?
result: 11.6

query: And the next one, `CC(C)(C)[C@]1(O)CCN2C[C@H]3c4ccccc4CCc4cccc(c43)[C@@H]2C1` ?
result: 0

query: And the next one, Cc1oc(=O)oc1CN1CCN(c2cc3c(cc2F)c(=O)c(C(=O)O)c2n3C(C)S2)CC1 (stereo not drawn) ?
result: 0

query: And the next one, `Cc1cc2c(cc1C(F)(F)F)N(C(=O)Nc1ccc(Oc3cccnc3C)nc1)CC2` ?
result: 0.4

query: And the next one, `CN(C)c1cc(CNCC(C)(C)C)c(O)c2c1C[C@H]1C[C@H]3[C@H](N(C)C)C(O)=C(C(N)=O)C(=O)[C@@]3(O)C(O)=C1C2=O` ?
result: 0.3

query: And the next one, `CCN(CC)Cc1ccc2cc(COC(=O)Nc3ccc(C(=O)NO)cc3)ccc2c1` ?
result: 15.6

query: And the next one, CCC(C)SSc1ncc[nH]1 (stereo not drawn) ?
result: 0

query: And the next one, `CCC(C)(C)C(=O)C(=O)N1CCC[C@H]1C(=O)OCCCc1cccnc1` ?
result: 0

query: And the next one, CN1CC(O)C2=C/C(=N/NC(N)=O)C(=O)C=C21 (stereo not drawn) ?
result: 0

query: And the next one, `CC1(C)OC(=O)NC1=O` ?
result: 0

query: And the next one, N=C(N)NCCCC[C@@H]1NC(=O)CCSSC[C@@H](C(N)=O)NC(=O)[C@@H]2CCCN2C(=O)[C@H](Cc2c[nH]c3ccccc23)NC(=O)[C@H](CC(=O)O)NC(=O)CNC1=O [eptifibatide] ?
result: 0

----------
tested on: U2OS; assay: cell viability relative to DMSO; higher = less toxic; conditions: 72 h; 100 nM
Parameter: cell viability (%)
Lab book: enter the figure in %, no units written.

Field: example entries. Status: answers known.
| Compound | Parameter | Unit info | Readout value |
| --- | --- | --- | --- |
| CCN1CCCC1CNC(=O)c1cc(S(=O)(=O)CC)c(N)cc1OC (configuration not stated) [amisulpride] | cell viability | % | 102 |
| Cc1cc2c(cc1C(F)(F)F)N(C(=O)Nc1ccc(Oc3cccnc3C)nc1)CC2 | cell viability | % | 95.8 |
| CNCC(O)c1ccc(O)c(O)c1 (racemic) | cell viability | % | 89 |

query: What value of cell viability has been recorded for this entry: `NS(=O)(=O)c1nn2cc(-c3ccccc3)nc2s1`
result: 97.8

query: And the next one, `COc1ccccc1C(=O)Nc1cccc(NC(=O)c2cccc(C)c2)c1` ?
result: 103

query: And the next one, `CC(C)CNc1nc(-c2cccc3ncccc23)cn2c(-c3ccc(C(=O)NC4CC4)cc3)cnc12` ?
result: 103

query: And the next one, C1CCN2C[C@@H]3C[C@@H](CN4CCCC[C@@H]34)[C@H]2C1 [sparteine-sulfate] ?
result: 104

----------
Recorded cell viability, one value per entry.
tested on: HepG2; assay: cell viability relative to DMSO; higher = less toxic; conditions: 72 h; 1 nM
Lab book: enter the figure in %, no units written.

| Molecule | Target system | Unit info | cell viability |
| --- | --- | --- | --- |
| O=C(NCC1(N2CCN(c3ccccc3)CC2)CCOCC1)c1cccnc1Sc1ccccc1 | HepG2 | % | 107 |
| O=C(O)c1ccc2c(c1)C(=O)N(c1cccc(Oc3ccc([N+](=O)[O-])cc3)c1)C2=O | HepG2 | % | 104 |
| CC(C)(C)NCc1cc(Nc2ccnc3cc(Cl)ccc23)c2c(c1O)CCCC2 [naphthoquine-phosphate] | HepG2 | % | 106 |

Switching to the query record.
query: What value of cell viability has been recorded for this entry: COC(=O)CN1CN(c2ccccc2)C2(CCN(Cc3cccc4ccccc34)CC2)C1=O [NNC-63-0532]
result: 93.5

----------
Recorded cell viability, one value per entry.
tested on: U2OS; assay: cell viability relative to DMSO; higher = less toxic; details: 72 h; 10000 nM
Lab book: enter the figure in %, no units written.

query: What value of cell viability has been recorded for this entry: CC[N+](CC)(CCNC(=O)C(=O)NCC[N+](CC)(CC)Cc1ccccc1Cl)Cc1ccccc1Cl [ambenonium]
result: 100

query: And the next one, COc1ccccc1OC(=O)C(C)c1ccc(CC(C)C)cc1 (centres undefined) [metoxibutropate] ?
result: 100

----------
Recorded cell viability, one value per entry.
tested on: HepG2; assay: cell viability relative to DMSO; higher = less toxic; conditions: 72 h; 10000 nM
Lab book: enter the figure in %, no units written.

query: What value of cell viability has been recorded for this entry: CCC(=O)OCC(=O)[C@@]1(OC(=O)CC)[C@@H](C)C[C@H]2[C@@H]3CCC4=CC(=O)C=C[C@]4(C)[C@@]3(Cl)[C@@H](O)C[C@@]21C [beclomethasone-dipropionate]
result: 80.2

query: And the next one, O=C1Nc2ccc(Cl)cc2[C@@](C#CC2CC2)(C(F)(F)F)O1 [efavirenz] ?
result: 94.6

query: And the next one, CC[C@H](C)[C@H](N)C1=N[C@H](C(=O)N[C@@H](CC(C)C)C(=O)N[C@H](CCC(=O)[O-])C(=O)N[C@H](C(=O)N[C@H]2CCCCNC(=O)[C@H](CC(N)=O)NC(=O)[C@@H](CC(=O)[O-])NC(=O)[C@H](Cc3cnc[nH]3)NC(=O)[C@@H](Cc3ccccc3)NC(=O)[C@H]([C@@H](C)CC)NC(=O)[C@@H](CCCN)NC2=O)[C@@H](C)CC)CS1.[Zn+2] [bacitracin-zinc] ?
result: 111

query: And the next one, Cc1cn([C@H]2C=C[C@@H](CO)O2)c(=O)[nH]c1=O [stavudine] ?
result: 95

query: And the next one, CC(C)(C)NCc1cc(Nc2ccnc3cc(Cl)ccc23)c2c(c1O)CCCC2 [naphthoquine-phosphate] ?
result: 98.6

query: And the next one, CC[N+](CC)(CCNC(=O)C(=O)NCC[N+](CC)(CC)Cc1ccccc1Cl)Cc1ccccc1Cl [ambenonium] ?
result: 105

query: And the next one, O=C(c1ccc(OCCCc2c[nH]cn2)cc1)C1CC1 [ciproxifan] ?
result: 88.6

query: And the next one, C/C(=C\C(=O)OCCCCCCCCC(=O)O)C[C@@H]1OC[C@H](C[C@@H]2O[C@H]2[C@@H](C)[C@H](C)O)[C@@H](O)[C@H]1O [mupirocin] ?
result: 92.2

query: And the next one, O=C(OC(C(F)(F)F)C(F)(F)F)N1CCC(C(O)(c2ccc3c(c2)OCO3)c2ccc3c(c2)OCO3)CC1 [KML29] ?
result: 98.8

query: And the next one, N#C/C(=C\c1cn(-c2ccccc2)c2ccccc12)C(=O)O [UK-5099] ?
result: 95.7

query: And the next one, CN1CC[C@H](c2c(O)cc(O)c3c(=O)cc(-c4ccccc4Cl)oc23)[C@H](O)C1 [alvocidib] ?
result: 7.2

query: And the next one, CC1(COc2ccc3c(c2)ncn3-c2ccc3cccc(N4CCC(N)CC4)c3n2)COC1 [crenolanib] ?
result: 9.5

query: And the next one, O=C1CCC2CCC(=O)N12 [rolziracetam] ?
result: 116

query: And the next one, Cc1ccc(NC(=O)CCCCCC(=O)Nc2ccccc2N)cc1 [TC-H-106] ?
result: 57.3

query: And the next one, `CO[C@H]1CC[C@@H](C(=O)c2ccc3nc4c(cc3c2)CCCO4)CC1` ?
result: 104
